Each recorded value in this set is attributed to patent US20180036405A1.

# tested-on: T1, human monomeric EGFR (EGFR.mmh) (human, UniProt P00533 25-647)
# T1 construct: Soluble monomeric EGFR construct
# assay-text: SPR 37C, mAb captured by anti-human Fc, EGFR.mmh analyte
parameter: koff (s⁻¹)
Write down the numeric answer in s⁻¹ and omit the unit.

Given H1H0085N (antibody, V domains shown, Tested in human IgG1 Fc format (H1H prefix); first obtained as H1M (mouse IgG1 Fc) from a hybridoma; also called H1M085N; H1H085N) VH: EVQLVESGGGLVQPGRSLRLSCAASGFTFDDYAMHWVRQAPGKGLEWVSGINWNSDKIAYADSVKGRFTISRDNAENSLFLQMNSLRPEDTALYYCVKRGDFWTEYYDYWGQGTLVTVSS VL: DIVMTQSPLSLPVTPGEPASISCRSSQSLLHSNGYNYLDWYLQKPGQSPHLLIYLVSTRASGVPDRFSGSGSGTDFTLKISRVEAEDVGVYYCIQALQTPWTFGQGTKVEIK , state its recorded koff.
0.00185

Continuing:
Given H1H161P (antibody, human IgG1, V domains shown, Human IgG1 Fc (H1H)) VH: QVQLVESGGGVVQPGRSLRLSCAASGFTFSNYGMYWVRQAPGKGLEWVTFISYDGSNKNYVDSMKGRFTISRDNSKNTLYLQMNSLRVEDTAVYYCAKDRISGTPWYGMDVWGQGTTVTVSS VL: DIQMTQSPSSLSASVGDRVTITCRASQDIADYLAWFQQKPGKAPKSLIFAASSLESWVPLKFSGSGSGTDFTLTISSLQPEDFATYYCQQYSRFPITFGQGTKVEIK , state its recorded koff.
0.000321

Given H1H144P (antibody, human IgG1, V domains shown, Human IgG1 Fc (H1H)) VH: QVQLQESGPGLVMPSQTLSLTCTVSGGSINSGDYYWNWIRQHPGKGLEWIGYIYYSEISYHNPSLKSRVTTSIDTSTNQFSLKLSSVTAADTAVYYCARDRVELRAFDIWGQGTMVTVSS VL: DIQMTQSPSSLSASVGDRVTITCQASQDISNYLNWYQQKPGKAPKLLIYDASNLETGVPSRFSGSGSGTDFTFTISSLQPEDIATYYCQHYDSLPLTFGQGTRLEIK , state its recorded koff.
0.000967

Given H1H158P (antibody, human IgG1, V domains shown, Human IgG1 Fc (H1H)) VH: QVQLVESGGGVVQPGGSLRLSCAASGFTFSIYGIHWVRQAPGKGLEWVAVISDDGSNKKYADSVKGRFTISRDNSKNTLYLQMNSLRAEDTAIFYCAKDRITGTHYYGMDVWGQGTTVTVSS VL: DIQMTQSPSSLSASVGDRVSITCRASQDISNYLAWFQQKPGKAPKSLIYAASSLQSGVPSKFSGSGSGIEFTLTISSLQPEDFSTYYCHQYNRFPWTFGQGTKVEIK , state its recorded koff.
0.000773

Given H1H159P (antibody, human IgG1, V domains shown, Human IgG1 Fc (H1H)) VH: EVQLVESGGGLVQPGGSLRLSCAASRFTFTNYWMSWVRQAPGKGLEWVAKIKQDGSEKYYLDSVKDRFTISRDNAKNSLYLQMNSLRAEDTAVYYCASSSSWYDYYYGMDVWGHGTTVTVSS VL: EIVLTQSPDFQSVTPKEKVTITCRASQSIGTNLHWYQQRPDQSPKLLIKFASQSFSGVPSRFSGSGSGTDFTLTINSLEAEDAATYYCHQTNFLPHTFGGGTKVEIKR , state its recorded koff.
0.000325
